Could you please report measured CC50 for the items listed next?
# RUN DESCRIPTION: in vitro
# Type: cell-based, Mouse
# SETTINGS: mouse, Mean CC50 ± SD +Irr
Ends that are not written are not given here.

{"SUBSTANCE": "FLPLIGRVLYGIL-NH2 [DTTyr10, FLPLIGRVL-Y-GILNH2]", "PARAMETER MEASURED": "CC50", "RESULT": "> 1000 µM"}
{"SUBSTANCE": "FLPLIGRVLTGIL-NH2 [DTThr, FLPLIGRVL-T-GILNH2]", "PARAMETER MEASURED": "CC50", "RESULT": "188 µM"}

Request: Report measured CC50; entry is YLPLIGRVLSGIL-NH2 [DTTyr1, Y-LPLIGRVLSGILNH2]
Response: 671 µM
